# Test Description: Stability of cannabinoid and Vitamin E components of Beverage 1 (AB White) stored at 8° C. and 21-25° C., LCMSMS over 570 days
# Assay type: physicochemical
# Settings: beverage stored at 8° C., day 19
Value Kind: Stability in AB White, 8° C. (content by LCMSMS) (µg/mL)

{"Compound": "CCCc1cc(O)c2c(c1)OC(C)(C)[C@@H]1CCC(C)=C[C@@H]21 [THCV, delta-9-tetrahydrocannabivarin]", "Value Observed": 3.51}
{"Compound": "C=C(C)[C@@H]1CCC(C)=C[C@H]1c1c(O)cc(CCC)cc1O", "Value Observed": 0.149}
{"Compound": "CCCCCc1cc(O)c2c(c1)OC1(C)CCC3C1C2C3(C)C (stereo not drawn)", "Value Observed": 0.537}
